biological target: Relipidated TF (UniProt P13726 33-295, limits assumed); experiment: cell-based or functional assay
observed property: % ttPeak, Ab conc. 50 nM (%)
The reply should be a number in %, with the unit left off.

As a guide, the following entries are already answered.
binder: TF-011 (antibody, V domains shown) VH: EVQLLESGGGLVQPGGSLRLSCAASGFTFSNYAMSWVRQAPGKGLEWVSSISGSGDYTYYTDSVKGRFTISRDNSKNTLYLQMNSLRAEDTAVYYCARSPWGYYLDSWGQGTLVTVSS VL: DIQMTQSPPSLSASAGDRVTITCRASQGISSRLAWYQQKPEKAPKSLIYAASSLQSGVPSRFSGSGSGTDFTLTISSLQPEDFATYYCQQYNSYPYTFGQGTKLEIK
value reported: 284

binder: 5G9 (humanized TF8-5G9, CNTO 860) (antibody, V domains shown) VH: QVQLVESGGGVVQPGRSLRLSCKASGFNIKDYYMHWVRQAPGKGLEWIGLIDPENGNTIYDPKFQGRFTISADNSKNTLFLQMDSLRPEDTAVYYCARDNSYYFDYWGQGTPVTVSS VL: DIQMTQSPSSLSASVGDRVTITCKASQDIRKYLNWYQQKPGKAPKLLIYYATSLADGVPSRFSGSGSGTDYTFTISSLQPEDIATYYCLQHGESPYTFGQGTKLEIT
value reported: 338

binder: 43B1 (antibody, IgG1, V domains shown) VH: QVQLQESGPGLVKPSQTLSLTCTVSGGSISSGQYWSWIRQHPGKGLEWIGEIYYSGSTRYNPSLKSRVTISVDTSKNQFSLKLSSVTAADTAVYYCARDAPYYYGGGYYYYMDVWGKGTTVTVSS VL: EIVLTQSPGTLSLSPGERATLSCRASESVDSSYLAWYQQKPGQAPRLLIYGASTRQTGIPDRFSGSGSGTDFTLTISRLEPEDFAVYYCQQAGVVPYTFGGGTKVEIK
value reported: 29

Please turn your attention to the following entry.
So for 39A (antibody, IgG1, V domains shown) VH: QVQLVQSGAEVKKPGSSVKVSCKASGGTFSSNAIGWVRQAPGQGLEWMGSIIPIIGFANYAQKFQGRVTITADESTSTAYMELSSLRSEDTAVYYCARDSGYYYGASSFGMDVWGQGTTVTVSS VL: EIVMTQSPATLSVSPGERATLSCRASQSVSSNLAWYQQKPGQAPRLLIYGASTRATGIPARFSGSGSGTEFTLTISSLQSEDFAVYYCEQYNNLPLTFGGGTKVEIK , the logged % ttPeak, Ab conc. 50 nM turned out to be 397
